Molecular target: Muscarinic acetylcholine receptor M4 (Homo sapiens)
Sequence (whole entry): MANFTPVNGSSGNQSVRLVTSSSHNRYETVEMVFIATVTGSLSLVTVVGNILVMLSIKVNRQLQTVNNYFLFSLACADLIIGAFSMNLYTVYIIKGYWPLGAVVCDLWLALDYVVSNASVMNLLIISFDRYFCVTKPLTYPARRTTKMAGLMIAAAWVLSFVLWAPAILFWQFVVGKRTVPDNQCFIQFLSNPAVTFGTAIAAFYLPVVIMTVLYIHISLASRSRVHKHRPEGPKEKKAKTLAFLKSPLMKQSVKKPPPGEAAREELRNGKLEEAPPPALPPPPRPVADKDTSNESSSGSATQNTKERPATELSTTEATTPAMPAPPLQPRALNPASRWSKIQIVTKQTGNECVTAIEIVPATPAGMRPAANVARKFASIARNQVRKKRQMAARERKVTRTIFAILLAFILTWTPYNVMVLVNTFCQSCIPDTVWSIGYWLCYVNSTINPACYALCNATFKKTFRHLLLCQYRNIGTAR
Assay: Positive allosteric modulation at Rluc-tagged human M4 mAChR expressed in Flp-In-CHO cells co-expressing eYFP-tagged beta-arrestin 2 assessed as efficacy of ACh-mediated beta-arrestin 2 recruitment (log tau B) incubated for 5 mins by luminometry
Format: cell-based
Settings: filed as positive allosteric modulator
measured-attribute: log(activity)

Examples with answers:
| smiles-data | log(activity) |
| --- | --- |
| Cc1ccc(-c2cnn(CC3CCCC3)c2)c(-c2ccccc2)n1 | 0.87 |
| Cc1ccc(-c2cnn(CC3CCCCC3)c2)c(-c2ccc3c(c2)C(=O)N(C)C3)n1 | 0.56 |
| Cc1ccc(-c2cnn(CC3CCCC3)c2)c(-c2ccc(N)c([N+](=O)[O-])c2)n1 | 0.39 |
| Cc1ccc(-c2cnn(CC3CC3)c2)c(-c2ccc3c(c2)C(=O)N(C)C3)n1 | 0.64 |

[P] CN1Cc2ccc(-c3ncccc3-c3cnn(CC4CCCC4)c3)cc2C1=O
[Q] Cc1ccc(-c2cnn(CC3CCCC3)c2)c(-c2ccc3c(c2)C(=O)N(C)C3)n1
[R] CN1Cc2ccc(-c3nccnc3-c3cnn(CC4CCCC4)c3)cc2C1=O
[S] Cc1ccc(-c2cnn(CC3CCCC3)c2)c(-c2cccc(C(=O)N(C)C)c2)n1
[T] Cc1ccc(-c2cnn(CC3CCCC3)c2)c(-c2ccc(F)c(F)c2)n1
Falling order of log(activity), please. When ranking, write the labels in the order the request describes.
Q, P, T, R, S

###

Target: UniProt P08173
Sequence (whole entry): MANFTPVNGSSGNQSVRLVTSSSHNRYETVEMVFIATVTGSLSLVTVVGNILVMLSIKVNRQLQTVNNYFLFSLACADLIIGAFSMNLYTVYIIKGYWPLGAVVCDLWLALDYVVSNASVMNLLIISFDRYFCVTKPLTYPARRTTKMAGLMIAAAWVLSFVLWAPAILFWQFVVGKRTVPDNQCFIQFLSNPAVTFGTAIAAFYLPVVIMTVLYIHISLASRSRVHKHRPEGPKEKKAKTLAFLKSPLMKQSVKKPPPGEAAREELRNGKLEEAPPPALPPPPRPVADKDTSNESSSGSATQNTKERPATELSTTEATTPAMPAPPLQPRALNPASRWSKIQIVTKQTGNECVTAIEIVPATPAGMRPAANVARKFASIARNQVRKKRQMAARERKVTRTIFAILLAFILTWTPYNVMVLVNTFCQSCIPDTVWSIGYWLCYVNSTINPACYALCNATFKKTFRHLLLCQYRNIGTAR
Experiment: […] human M4 mAChR expressed in Flp-In-CHO cells co-expressing CAMYEL biosensor assessed as change in baseline response at 10 uM incubated for 5 mins by BRET assay relative to control
Assay type: cell-based
Conditions: filed as positive allosteric modulator
measured-attribute: Activity (%)

[A] Cc1ccc(-c2cnn(CC(C)C)c2)c(-c2ccc3c(c2)C(=O)N(C)C3)n1
[B] Cc1ccc(-c2cnn(CC3CCCC3)c2)c(-c2cccc(N)c2)n1
API: POST /compare with A and B ; response names the item with higher Activity. Selection: enter the item's label.
A

###

Molecular target: Muscarinic acetylcholine receptor M4 (Homo sapiens) (UniProt P08173)
Test: Positive allosteric modulation at human M4 mAChR expressed in Flp-In-CHO cells co-expressing CAMYEL biosensor assessed as efficacy of ACh-mediated cAMP signalling (log tau B) incubated for 5 mins by BRET assay
Type: functional, cell-based
Conditions: filed as positive allosteric modulator
measured-attribute: log(activity)

| smiles-data | measured-attribute | observed-result |
| --- | --- | --- |
| Cc1ccc(-c2cnn(CC3CCCC3)c2)c(-c2cccc(C(=O)N(C)C)c2)n1 | log(activity) | -0.58 |

[A] Cc1ccc(-c2cnn(CC3CCCC3)c2)c(-c2ccccc2)n1
[B] CN1Cc2ccc(-c3nccnc3-c3cnn(CC4CCCC4)c3)cc2C1=O
[C] Cc1ccc(-c2cnn(CC3CCCC3)c2)c(-c2ccc3c(c2)C(=O)N(C)C3)n1
Put the items in order so that reported log(activity) rises from first to last. Please respond by ranking the labels in the order requested.
B, C, A
(B: -0.74, C: -0.45, A: 0.04)

###

Biological target: UniProtKB P08173
Test: Displacement of 3[H]-NMS from human M4 mAChR expressed in Flp-In-CHO cells assessed as binding co-operativity (log alpha) incubated for 6 hrs in presence of ACh by microbeta2 plate reader assay
Type: cell-based
Conditions: filed as positive allosteric modulator
measured-attribute: log(activity)

| smiles-data | log(activity) |
| --- | --- |
| Cc1ccc(-c2cnn(CC3CCCC3)c2)c(-c2ccccc2)n1 | 1.98 |
| CN1Cc2ccc(-c3ncccc3-c3cnn(CC4CCCC4)c3)cc2C1=O | 2.18 |
| Cc1ccc(-c2cnn(CC3CCCC3)c2)c(-c2ccc(N)c([N+](=O)[O-])c2)n1 | 1.87 |
| Cc1ccc(-c2cnn(CC3CCCC3)c2)c(-c2ccc3c(c2)C(=O)N(C)C3)n1 | 2.12 |

###

Target: Muscarinic acetylcholine receptor M4 (Homo sapiens) (UniProt P08173)
Assay: Positive allosteric modulation at human M4 mAChR expressed in Flp-In-CHO cells co-expressing CAMYEL biosensor assessed as change in ACh-mediated response incubated for 5 mins by BRET assay
Assay type: cell-based
Settings: filed as positive allosteric modulator
measured-attribute: deltapEC50

Answered examples (2):
| smiles-data | observed-result |
| --- | --- |
| Cc1ccc(-c2cnn(CC3CCCC3)c2)c(-c2cccc(C(=O)N(C)C)c2)n1 | 0.25 |
| Cc1ccc(-c2cnn(CC3CCCC3)c2)c(-c2cccc(C(N)=O)c2)n1 | 1.33 |

[P] CN1Cc2ccc(-c3ccccc3-c3cnn(CC4CCCC4)c3)cc2C1=O
[Q] Cc1ccc(-n2cc(CC3CCCC3)nn2)c(-c2ccc3c(c2)C(=O)N(C)C3)n1
Select one. Lower deltapEC50: P or Q Let me know the label of the one you choose.
P
(P: 0.63, Q: 1.06)

[1] Cc1ccc(-c2cnn(C)c2)c(-c2ccc3c(c2)C(=O)N(C)C3)n1
[2] Cc1ccc(-c2cnn(CC3CCCC3)c2)c(-c2ccc(N)c([N+](=O)[O-])c2)n1
Select one: 1 or 2 . Criterion: greater recorded deltapEC50. # respond with the chosen item's label
2

###

Molecular target: Muscarinic acetylcholine receptor M4 (Homo sapiens) (UniProt P08173)
Sequence (whole entry): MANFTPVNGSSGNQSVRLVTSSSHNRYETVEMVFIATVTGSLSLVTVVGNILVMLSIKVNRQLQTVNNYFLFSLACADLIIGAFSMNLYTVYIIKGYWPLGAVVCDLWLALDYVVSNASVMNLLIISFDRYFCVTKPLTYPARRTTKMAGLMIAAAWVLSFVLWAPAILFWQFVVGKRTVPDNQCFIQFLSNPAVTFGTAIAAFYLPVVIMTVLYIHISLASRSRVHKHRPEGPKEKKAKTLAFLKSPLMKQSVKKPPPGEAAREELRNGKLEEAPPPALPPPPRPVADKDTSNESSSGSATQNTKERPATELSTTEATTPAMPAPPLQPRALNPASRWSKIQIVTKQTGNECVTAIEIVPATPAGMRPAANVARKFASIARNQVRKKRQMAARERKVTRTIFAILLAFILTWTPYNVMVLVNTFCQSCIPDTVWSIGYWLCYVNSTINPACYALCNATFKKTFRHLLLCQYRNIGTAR
Assay: […] human M4 mAChR expressed in Flp-In-CHO cells co-expressing CAMYEL biosensor assessed as change in baseline response at 10 uM incubated for 5 mins by BRET assay relative to control
Assay type: cell-based
Conditions: filed as positive allosteric modulator
measured-attribute: Activity (%)

| smiles-data | system-under-test | units-text | observed-result |
| --- | --- | --- | --- |
| Cc1ccc(-c2cnn(CC3CCCC3)c2)c(-c2ccc(N)cc2)n1 | Muscarinic acetylcholine receptor M4 (Homo sapiens) (UniProt P08173) | % | 88.1 |

[1] CC(=O)Nc1cccc(-c2nc(C)ccc2-c2cnn(CC3CCCC3)c2)c1
[2] Cc1ccc(-c2cnn(Cc3ccccc3)c2)c(-c2ccc3c(c2)C(=O)N(C)C3)n1
Of 1 and 2 , whose reported Activity is the larger number? # respond with the chosen item's label
2
(2: 77.1%, 1: 52.2%)
